assay: Permeability of compound at pH 7.4 by PAMPA; type: ADME; details: read-out: permeability
QUANTITY KIND: Papp (×10⁻⁶ cm/s)

| SMILES CODE | Papp (×10⁻⁶ cm/s) |
| --- | --- |
| Cc1cnc2c(c1)CCC[C@@H]2N(C)C[C@H]1Cc2c(cccc2N2CCNCC2)CN1 | 0.9 |
| CN(C[C@H]1Cc2c(cccc2N2CCN3CCC[C@H]3C2)CN1)[C@H]1CCCc2cccnc21 | 16.7 |
| OCCN(C[C@H]1Cc2c(cccc2N2CCNCC2)CN1)[C@H]1CCCc2cccnc21 | 1.1 |
| CN1CCN(c2cccc3c2C[C@H](CN(C)[C@H]2CCCc4cccnc42)N(C)C3)CC1 | 36.4 |
| CN1CCN(c2cccc3c2C[C@H](CN2CCC[C@H]4CCc5cccnc5[C@H]42)NC3)CC1 | 32.3 |
| CC(C)N(C[C@H]1Cc2c(cccc2N2CCNCC2)CN1)[C@H]1CCCc2cccnc21 | 1.6 |
| CCCN(C[C@H]1Cc2c(cccc2N2CCNCC2)CN1)[C@H]1CCCc2cccnc21 | 2.65 |
| C[C@@H]1CN(c2cccc3c2C[C@H](CN(C)[C@H]2CCCc4cccnc42)NC3)C[C@H](C)N1 | 3.9 |
| Cc1ccc(CN(C)C[C@H]2Cc3c(cccc3N3CCNCC3)CN2)nc1 | 22.5 |
| CN(C[C@H]1Cc2c(cccc2N2CCN3CCC[C@@H]3C2)CN1)[C@H]1CCCc2cccnc21 | 74 |

I. CN(C[C@H]1Cc2c(cccc2N2CCN(c3cccc(C(F)(F)F)c3)CC2)CN1)[C@H]1CCCc2cccnc21
II. c1cnc2c(c1)CCC[C@@H]2N(CC1CCCCC1)C[C@H]1Cc2c(cccc2N2CCNCC2)CN1
Problem: Task for the reader: decide whether I or II has the larger Papp. Indicate your choice by writing its label.
Solution: I
(I: 14.1 ×10⁻⁶ cm/s, II: 0.9 ×10⁻⁶ cm/s)
